target: KRAS G12C (Homo sapiens (Human), UniProt P01116, G12C); experiment: SPR binding affinity and kinetics, GTPγS-loaded KRAS G12C; settings: GTPγS loaded protein, geomean
Sequence (P01116 other isoform, or with tags, fused parts or gaps G12C): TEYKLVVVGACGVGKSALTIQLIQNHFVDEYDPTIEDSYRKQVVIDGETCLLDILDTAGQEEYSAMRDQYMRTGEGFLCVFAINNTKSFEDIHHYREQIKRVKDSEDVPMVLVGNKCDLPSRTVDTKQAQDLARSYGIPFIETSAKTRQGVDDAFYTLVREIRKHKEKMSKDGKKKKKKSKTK
test readout: pKd
pKd field: float, defined as -log10 of concentration (mol/L).

Query string: Could you share which pKd value was measured for Fc1c(-c2c(C3CC3)c(Cl)cc3[nH]ncc23)nc2c3c(nc(OC[C@@]45C[C@@H](F)CN4CC4(CC4)C5)nc13)N1CCCOC[C@H]1CO2 ?
Result string: 7.92

Query string: Could you share which pKd value was measured for Fc1c(-c2c(C3CC3)c(Cl)cc3[nH]ncc23)nc2c3c(nc(OC[C@@]45CCCN4C[C@H](F)C5)nc13)N1CCCOC[C@H]1CO2 ?
Result string: 7.92
